Provenance of the data: patent US20130012466A1

# System: SK-OV-3
# Assay Text: Cytotoxicity assay (cell titer-glo and calcein AM), SK-OV-3
# Settings: read-out: Cytotoxicity IC50, SK-OV-3, CTG; SK-OV-3; CTG (cell titer-glo) readout; % error in parentheses
Observation Type: IC50 (µM)

{"Compound": "COc1cc2c(c(OC)c1OC)-c1ccc(OC)c(=O)cc1[C@@H](NC(=O)CN(OC)[C@@H]1O[C@H](CSC(C)=O)[C@H](O)[C@H](O)[C@H]1O)CC2 [Col68, 6-deoxy-6-thio-acyl-D-galactoside]", "Unit Text": "µM", "Comparison Sign": "=", "Recorded Number": 4.5}
{"Compound": "COc1cc2c(c(OC)c1OC)-c1ccc(OC)c(=O)cc1C(NC(=O)CN(OC)C1CC(O)C(O)C(C)O1)CC2 [Col65, D-Digitoxoside]", "Unit Text": "µM", "Comparison Sign": "=", "Recorded Number": 0.634}
{"Compound": "COc1cc2c(c(OC)c1OC)-c1ccc(OC)c(=O)cc1[C@@H](NC(=O)CN(OC)[C@@H]1O[C@H](CN=[N+]=[N-])[C@H](O)[C@H](O)[C@H]1O)CC2 [Col43, 6-deoxy-6-azido-D-galactoside]", "Unit Text": "µM", "Comparison Sign": ">", "Recorded Number": 10}
